details: in water, 313.15 K
measurement.name: solubility (mole fraction)
Give only the figure.

Provide solubility (mole fraction) value for the following compound: Cc1[nH]nc2cc([N+](=O)[O-])ccc12
0.000123

###

details: in n-propanol, 288.15 K
measurement.name: solubility (mole fraction)

Tell me measured solubility (mole fraction) for Cc1[nH]nc2cc([N+](=O)[O-])ccc12 please.
0.00682

###

details: in water, 283.15 K
measurement.name: solubility (mole fraction)

In one line, give reported solubility (mole fraction) of the entry Cc1[nH]nc2cc([N+](=O)[O-])ccc12 .
2.7e-05

###

details: in n-propanol, 303.15 K
measurement.name: solubility (mole fraction)
# output: bare number, no unit

Tell me its solubility (mole fraction) given Cc1[nH]nc2cc([N+](=O)[O-])ccc12 as the entry.
0.0103
